Ratio IC50: recorded values
- Species: Rattus norvegicus
- ASSAY_NOTES: Selectivity index, ratio of IC50 for rat kidney ALR1 to IC50 for rat lens ALR2
- Assay type: tissue-based
- CONDITION_CONTEXT: Lens of camera-type eye
MEASURED_ATTRIBUTE: Ratio IC50

>>> obs_value("O=C(c1ccccc1)c1cccn1-c1cc(F)c(O)c(F)c1")
4.3
>>> obs_value("COc1cccc(C(=O)c2ccn(-c3cc(F)c(O)c(F)c3)c2)c1")
5.2
>>> obs_value("O=C(c1ccccc1)c1ccn(-c2cc(F)c(O)c(F)c2)c1")
33.8
>>> obs_value("COc1cccc(C(=O)c2cccn2-c2cc(F)c(O)c(F)c2)c1")
19.9
>>> obs_value("O=C(c1ccccc1)c1ccn(-c2ccc(F)c(O)c2F)c1")
1.3
>>> obs_value("COc1ccc(C(=O)c2cccn2-c2cc(F)c(O)c(F)c2)cc1")
71.6

###

pIC50: −log10 of the molar value.
Below are pIC50 values recorded for Aldo-keto reductase family 1 member B1 (Rattus norvegicus, UniProt P07943).
MEASURED_ATTRIBUTE: pIC50

>>> obs_value("O=C(c1ccccc1)c1ccn(-c2ccc(F)c(O)c2F)c1")
5.90
>>> obs_value("COc1ccc(C(=O)c2cccn2-c2cc(F)c(O)c(F)c2)cc1")
6.41
